Source: ChEMBL document CHEMBL2150939

- System: MGC-803
- test.name: Antiproliferative activity against human MGC803 cells after 72 hrs by MTT assay
- Type: functional, cell-based
- experimental.conditions: MGC-803, 72 h
reported.property: pIC50
pIC50 field: float, defined as -log10 of concentration (mol/L).

Would you please look over these solved cases?
Problem: Give MGC-803 pIC50 for C[C@H]1[C@H](C)CC[C@]2(C(=O)OCCN3CCN(C(=O)c4ccccc4Cl)CC3)CC[C@]3(C)C(=CC[C@@H]4[C@@]5(C)CC[C@H](O)C(C)(C)[C@@H]5CC[C@]43C)[C@H]12
Result: 5.33

Problem: Another: C[C@H]1[C@H](C)CC[C@]2(C(=O)OCCN3CCNCC3)CC[C@]3(C)C(=CC[C@@H]4[C@@]5(C)CC[C@H](O)C(C)(C)[C@@H]5CC[C@]43C)[C@H]12
Result: 5.14

Problem: Another: C[C@H]1[C@H](C)CC[C@]2(C(=O)OCCN3CCN(C(=O)c4ccc(F)cc4)CC3)CC[C@]3(C)C(=CC[C@@H]4[C@@]5(C)CC[C@H](O)C(C)(C)[C@@H]5CC[C@]43C)[C@H]12
Result: 5.14

Problem: Another: C[C@H]1[C@H](C)CC[C@]2(C(=O)OCCN3CCN(C(=O)/C=C/c4ccccc4)CC3)CC[C@]3(C)C(=CC[C@@H]4[C@@]5(C)CC[C@H](O)C(C)(C)[C@@H]5CC[C@]43C)[C@H]12
Result: 4.90

Problem: Another: C[C@H]1[C@H](C)CC[C@]2(C(=O)OCCN3CCN(C(=O)c4cccnc4Cl)CC3)CC[C@]3(C)C(=CC[C@@H]4[C@@]5(C)CC[C@H](O)C(C)(C)[C@@H]5CC[C@]43C)[C@H]12
Result: 4.85

***
Problem: Give MGC-803 pIC50 for COc1cccc2c1C(=O)c1c(O)c3c(c(O)c1C2=O)C[C@@](O)(C(=O)CO)C[C@@H]3O[C@H]1C[C@H](N)[C@H](O)[C@H](C)O1
Result: 6.15

Problem: Another: C[C@H]1[C@H](C)CC[C@]2(C(=O)OCCN3CCN(C(=O)c4ccncc4)CC3)CC[C@]3(C)C(=CC[C@@H]4[C@@]5(C)CC[C@H](O)C(C)(C)[C@@H]5CC[C@]43C)[C@H]12
Result: 4.88

Problem: Another: CC(C)c1ccc(C(=O)N2CCN(CCOC(=O)[C@]34CC[C@@H](C)[C@H](C)[C@H]3C3=CC[C@@H]5[C@@]6(C)CC[C@H](O)C(C)(C)[C@@H]6CC[C@@]5(C)[C@]3(C)CC4)CC2)cc1
Result: 5.30

Problem: Another: C[C@H]1[C@H](C)CC[C@]2(C(=O)OCCN3CCN(C(=O)c4c(F)cccc4Cl)CC3)CC[C@]3(C)C(=CC[C@@H]4[C@@]5(C)CC[C@H](O)C(C)(C)[C@@H]5CC[C@]43C)[C@H]12
Result: 5.38

Problem: Another: Cc1ccccc1C(=O)N1CCN(CCOC(=O)[C@]23CC[C@@H](C)[C@H](C)[C@H]2C2=CC[C@@H]4[C@@]5(C)CC[C@H](O)C(C)(C)[C@@H]5CC[C@@]4(C)[C@]2(C)CC3)CC1
Result: 5.44

Problem: Another: C[C@H]1[C@H](C)CC[C@]2(C(=O)OCCN3CCN(C(=O)c4ccc(F)cc4F)CC3)CC[C@]3(C)C(=CC[C@@H]4[C@@]5(C)CC[C@H](O)C(C)(C)[C@@H]5CC[C@]43C)[C@H]12
Result: 4.90

Problem: Another: CCCCC(CC)C(=O)N1CCN(CCOC(=O)[C@]23CC[C@@H](C)[C@H](C)[C@H]2C2=CC[C@@H]4[C@@]5(C)CC[C@H](O)C(C)(C)[C@@H]5CC[C@@]4(C)[C@]2(C)CC3)CC1 (stereo partly specified)
Result: 5.16

Problem: Another: C[C@H]1[C@H](C)CC[C@]2(C(=O)OCCBr)CC[C@]3(C)C(=CC[C@@H]4[C@@]5(C)CC[C@H](O)C(C)(C)[C@@H]5CC[C@]43C)[C@H]12
Result: 4.91

Problem: Another: C[C@H]1[C@H](C)CC[C@]2(C(=O)OCCN3CCN(C(=O)c4c(Cl)cccc4Cl)CC3)CC[C@]3(C)C(=CC[C@@H]4[C@@]5(C)CC[C@H](O)C(C)(C)[C@@H]5CC[C@]43C)[C@H]12
Result: 5.60

Problem: Another: C[C@H]1[C@H](C)CC[C@]2(C(=O)OCCN3CCN(C(=O)c4ccccc4C(F)(F)F)CC3)CC[C@]3(C)C(=CC[C@@H]4[C@@]5(C)CC[C@H](O)C(C)(C)[C@@H]5CC[C@]43C)[C@H]12
Result: 5.06

Problem: Another: C[C@H]1[C@H](C)CC[C@]2(C(=O)O)CC[C@]3(C)C(=CC[C@@H]4[C@@]5(C)CC[C@H](O)C(C)(C)[C@@H]5CC[C@]43C)[C@H]12
Result: 4.61

Problem: Another: C[C@H]1[C@H](C)CC[C@]2(C(=O)OCCN3CCN(C(=O)c4cc(Cl)ccc4[N+](=O)[O-])CC3)CC[C@]3(C)C(=CC[C@@H]4[C@@]5(C)CC[C@H](O)C(C)(C)[C@@H]5CC[C@]43C)[C@H]12
Result: 5.03

Problem: Another: C[C@H]1[C@H](C)CC[C@]2(C(=O)OCCN3CCN(C(=O)Cc4ccc(Cl)cc4)CC3)CC[C@]3(C)C(=CC[C@@H]4[C@@]5(C)CC[C@H](O)C(C)(C)[C@@H]5CC[C@]43C)[C@H]12
Result: 5.07
